Tested on: Sam68 (KHDRBS1)
Assay: Sam68 small-molecule binders, primary screen, biochemical, small-molecule microarray, 635 nm fluorescence (AID 1125);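 note: score merges 667 nm channel intensity with signal to noise over triplicate slides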
Conditions: small-molecule microarray binding, higher = more signal
quantity kind: composite z-score

[
  {
    "compound": "CC1(C)OB(/C=C\\CC(OC(=O)c2ccncc2)c2ccccc2)OC1(C)C (stereo not given)",
    "quantity kind": "composite z-score",
    "result": 0.426
  },
  {
    "compound": "O=C1N(Cc2ccccc2)Cc2ccccc2C[C@@]12COC(c1ccc(OCCCO)cc1)=N2",
    "quantity kind": "composite z-score",
    "result": 1.22
  },
  {
    "compound": "COCCOC(=O)N1C(=O)[C@@]2(c3cc(C#CCC(C(=O)OC)C(=O)OC)ccc31)[C@H](C(=O)N1CCc3cc(OC)c(OC)cc3C1)[C@H]1C(=O)O[C@H](c3ccccc3)[C@H](c3ccccc3)N1[C@@H]2c1ccccc1OCCO",
    "quantity kind": "composite z-score",
    "result": 1.3
  },
  {
    "compound": "C=C(C(=O)CC[C@@H](OC(=O)c1ccccc1-c1ccccc1C(=O)O)c1ccc(CO)o1)C(C)C",
    "quantity kind": "composite z-score",
    "result": 0.754
  },
  {
    "compound": "CCCCC(=C=CC[C@@H](O)c1ccccc1OCCO)C[C@@H](O)c1ccccn1",
    "quantity kind": "composite z-score",
    "result": 0.81
  },
  {
    "compound": "COC(=O)c1c2oc(c1C(=O)OC)C(=O)N[C@H](Cc1ccccc1)Cn1cc(nn1)C1(CCCCC1)NC(=O)N[C@H](CO)CC2",
    "quantity kind": "composite z-score",
    "result": 0.0112
  },
  {
    "compound": "C=CCOC(=O)[C@@H]1[C@H]2C(=O)O[C@H](c3ccccc3)[C@H](c3ccccc3)N2[C@H](c2ccc(OCCOC(=O)[C@H]3C[C@H]4C(=O)N[C@@H](CCCCN(C)C)C(=O)N4[C@H]3c3cccc(OCCO)c3)cc2)[C@@]12C(=O)Nc1ccccc12",
    "quantity kind": "composite z-score",
    "result": 0.846
  },
  {
    "compound": "COC(=O)[C@]1(Cc2ccccc2N=[N+]=[N-])N=C(c2ccc(OCCCO)cc2)O[C@@H]1c1ccccc1CN=[N+]=[N-]",
    "quantity kind": "composite z-score",
    "result": 1.27
  },
  {
    "compound": "CC(=O)NCCCC[C@@H]1NC(=O)[C@H]2C[C@@H](C(=O)O)[C@@H](c3cccc(OCCO)c3)N2C1=O",
    "quantity kind": "composite z-score",
    "result": 1.29
  },
  {
    "compound": "CC(C)N1C(=O)[C@@]2(Cc3ccccc31)c1ccccc1C(=O)N(Cc1ccccc1C(F)(F)F)[C@H]2c1ccc(CO)cc1",
    "quantity kind": "composite z-score",
    "result": 1.01
  }
]

* * *

System: Noggin (protein binding on small-molecule microarray)
Test: Noggin binders on small-molecule microarray, primary screen, biochemical, 635/667 nm fluorescence (AID 1095);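 note: score merges 667 nm feature fluorescence with signal to noise over triplicate slides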
Conditions: 635 nm fluorescence, higher = more signal
Recorded composite z-score for the following compounds

[
  {
    "compound": "CC(C)[Si](C#Cc1ccccc1)(O[C@H](c1ccccc1)c1cn(Cc2ccccc2)nn1)C(C)C",
    "composite z-score": 1.08
  },
  {
    "compound": "COc1ccc([Si](C)(C)[C@H]2[C@H](CC(=O)N3CCC[C@H]3CO)O[C@@]3(C(=O)N(Cc4cccc(N5CCCCC5=O)c4)c4ccccc43)[C@@H]2C)cc1",
    "composite z-score": 1.23
  },
  {
    "compound": "CC(C)c1ccc(NN2C(C(O)C3CCCCC3)C=CC3C(=O)N(c4ccccc4)C(=O)C32)cc1 (stereo unspecified)",
    "composite z-score": -0.0338
  },
  {
    "compound": "COC(=O)C(CC#Cc1ccc2c(c1)[C@]1(C(=O)N2)[C@H](C(N)=O)[C@H]2C(=O)O[C@H](c3ccccc3)[C@H](c3ccccc3)N2[C@@H]1c1ccccc1OCCO)C(=O)OC",
    "composite z-score": 0.877
  },
  {
    "compound": "COC(=O)[C@@]1(Cc2ccc(F)cc2)[C@@H]2C(=CC(=O)[C@H]2CC(=O)C(=O)N2CCCC2)CN1C(=O)c1ccccc1",
    "composite z-score": 1.32
  },
  {
    "compound": "CC1CC/C=C\\[C@H]2OC34C=CCN(C(C)C)C(=O)[C@H]3N(C(C)CO)C(=O)[C@@H]4C2C(=O)O1 (stereo partly specified)",
    "composite z-score": 0.202
  }
]
